Where these numbers come from: patent US11021444B2

- TEST_NAME: Cytotoxicity Determination (CCK-8, without addition of virus)
- Assay type: cell-based
- PARTICULARS: human, 50% cytotoxicity concentration (CC50)
The compounds listed here are annotated with their CC50 at 5 days.
QUANTITY_NAME: CC50 at 5 days

INSERT INTO assay_data (compound, meas_value) VALUES
  ('COc1cc(C(=O)NCC(C)(O)c2cc(C(C)(C)N)cc(-c3ccc(F)cc3)n2)ccc1OC1CC1 (centres unmarked)', '10 to 100 µM'),
  ('COc1cc(C(=O)NCC(C)(O)c2ccc(OC)c(-c3ccc(F)c(Cl)c3)n2)ccc1OCCF (centres unmarked)', '10 to 100 µM'),
  ('COc1cc(C(=O)NCC(O)(c2ccc(OC)c(-c3ccc(F)c(Cl)c3)n2)C2CC2)ccc1Cn1cncn1 (centres unmarked)', '10 to 100 µM'),
  ('COc1ccc(C(=O)NCC(C)(O)c2cccc(-c3csc4c(F)cccc34)n2)cc1OC (centres unmarked)', '10 to 100 µM'),
  ('COc1cc(C(=O)NCC(O)(c2cc3c(c(-c4ccnc(C)c4)n2)OCC3(C)N)C(F)(F)F)ccc1OCCO (centres unmarked)', '> 100 µM'),
  ('COc1cc(C(=O)NCC(C)(CO)c2ccc(OC)c(-c3ccc(F)c(Cl)c3)n2)ccc1OCCO (centres unmarked)', '10 to 100 µM'),
  ('COc1cc(C(=O)NCC(O)(c2cc3c(c(-c4ccc(F)c(Cl)c4)n2)OCC3(C)C)C2CC2)cc2cccnc12 (centres unmarked)', '10 to 100 µM'),
  ('COc1cc(C(=O)NCC(=O)c2cc3c(c(-c4ccc(F)c(Cl)c4)n2)OCC3(C)C)cc2cccnc12', '> 100 µM'),
  ('COc1cc(C(=O)NCC(O)(c2cc3c(c(-c4ccc(F)c(Cl)c4)n2)OCCC3(C)C)C(F)(F)F)ccc1OCC(N)=O (centres unmarked)', '10 to 100 µM'),
  ('COc1cc(-c2csc3c(F)cccc23)nc(C(O)CNC(=O)c2ccc(OC)c(OC)c2)c1 (centres unmarked)', '10 to 100 µM'),
  ('CC(C)(N)c1cc(-c2ccc(F)cc2)nc(C(O)(CNC(=O)c2ccc(OC3CC3)c(CO)c2)C(F)(F)F)c1 (centres unmarked)', '10 to 100 µM'),
  ('CCc1ccc(C(C)(O)CNC(=O)c2ccc(OC)c(OC)c2)nc1-c1csc2c(F)cccc12 (centres unmarked)', '10 to 100 µM'),
  ('COc1cc(C(=O)NCC(F)c2ccc(OC)c(-c3ccc(F)c(Cl)c3)n2)ccc1OCCO (centres unmarked)', '10 to 100 µM'),
  ('COc1cc(C(=O)NCC(C)(O)c2ccc(OC)c(-c3c[nH]c4c(F)cccc34)n2)ccc1OCC(N)=O (centres unmarked)', '> 100 µM'),
  ('COc1ccc(C(=O)NCC(O)c2nc(-c3csc4c(F)cccc34)c[nH]2)cc1OC (centres unmarked)', '10 to 100 µM'),
  ('COc1cc(C(=O)NCC(O)(c2cc(C(C)(C)N)cc(-c3ccc(F)c(Cl)c3)n2)C(F)(F)F)ccc1OCc1nnn[nH]1 (centres unmarked)', '> 100 µM'),
  ('COc1cc(C(=O)NCC(O)(CC2CNC2)c2ccc(OC)c(-c3ccc(F)c(Cl)c3)n2)ccc1OC1CC1 (centres unmarked)', '10 to 100 µM'),
  ('COc1ccc(C(O)(CNC(=O)c2ccc3ncoc3c2)C(F)(F)F)nc1-c1ccc(F)c(Cl)c1 (centres unmarked)', '10 to 100 µM'),
  ('COc1cc(C(=O)NCC(C)(O)c2ccc(OC)c(-c3c[nH]c4c(F)cccc34)n2)ccc1OCCO (racemic)', '10 to 100 µM'),
  ('COc1cc(C(=O)NCC(O)(c2ccc(OC)c(-c3ccc(F)c(Cl)c3)n2)C(F)(F)F)ccc1OC1CC1(F)F (centres unmarked)', '> 100 µM'),
  ('COc1cc(C(=O)NCC(F)(F)c2ccc(OC)c(-c3ccc(F)c(Cl)c3)n2)ccc1OCCO', '> 100 µM'),
  ('COc1ccc(C(=O)NCC(O)c2cccc(-c3csc4c(F)cccc34)n2)cc1OC (centres unmarked)', '10 to 100 µM'),
  ('COc1cc(C(=O)NCC(C)(C)c2ccc(OC)c(-c3ccc(F)c(Cl)c3)n2)ccc1OCCO', '10 to 100 µM'),
  ('COc1cc(C(=O)NCC(O)(c2cc(C(C)(N)CF)cc(-c3ccc(F)cc3)n2)C(F)(F)F)ccc1OCCO (single isomer, unassigned)', '10 to 100 µM'),
  ('COc1cc(C(=O)NCC(O)(c2ccc(OC)c(-c3ccc(F)c(Cl)c3)n2)C(F)(F)F)ccc1OC1(C)CC1 (centres unmarked)', '10 to 100 µM'),
  ('Cc1ncc(C(=O)NCC(O)(c2cc(C(C)(C)N)cc(-c3ccc(F)cc3)n2)C(F)(F)F)o1 (centres unmarked)', '> 100 µM'),
  ('COc1cc(C(=O)NCC(O)(CO)c2ccc(OC)c(-c3ccc(F)c(Cl)c3)n2)ccc1OCCO (centres unmarked)', '> 100 µM'),
  ('COc1cc(C(=O)NCC(O)(c2cc3c(c(-c4ccc(F)c(Cl)c4)n2)OCCC3(C)C)C(F)(F)F)ccc1OC1CCNC1=O (centres unmarked)', '10 to 100 µM'),
  ('COc1cc(C(=O)NCC(F)(CO)c2ccc(OC)c(-c3ccc(F)c(Cl)c3)n2)ccc1OC1CC1 (centres unmarked)', '10 to 100 µM');
